# System: GAPDH
# Assay Comment: Peg3 promoter luciferase inhibitors, potency, dose response, cell-based, HeLa, CREF/GAPDH counter-screen panel (AID 624167)
# Stated Conditions: CREF/GAPDH counter-screens, run 1, dose range 1, individual replicate IC50 per panel
Endpoint Name: IC50

INSERT INTO results (compound, assayed_system, endpoint_name, result) VALUES
  ('CCCC(=O)NC(c1ccccc1)c1ccc2cccnc2c1O (stereo not drawn)', 'GAPDH', 'IC50', '> 100 µM'),
  ('COCCCNC(=O)c1ccc(Cn2c(=O)c3ccccc3n(Cc3ccccc3C#N)c2=O)cc1', 'GAPDH', 'IC50', '> 100 µM'),
  ('O=C(CNc1ccccc1)N/N=C/c1c(O)ccc2ccccc12', 'GAPDH', 'IC50', '> 100 µM');

====

# Assayed System: PEG-3 (UniProt Q6IN02)
# Sequence (Q6IN02 whole entry, looked up): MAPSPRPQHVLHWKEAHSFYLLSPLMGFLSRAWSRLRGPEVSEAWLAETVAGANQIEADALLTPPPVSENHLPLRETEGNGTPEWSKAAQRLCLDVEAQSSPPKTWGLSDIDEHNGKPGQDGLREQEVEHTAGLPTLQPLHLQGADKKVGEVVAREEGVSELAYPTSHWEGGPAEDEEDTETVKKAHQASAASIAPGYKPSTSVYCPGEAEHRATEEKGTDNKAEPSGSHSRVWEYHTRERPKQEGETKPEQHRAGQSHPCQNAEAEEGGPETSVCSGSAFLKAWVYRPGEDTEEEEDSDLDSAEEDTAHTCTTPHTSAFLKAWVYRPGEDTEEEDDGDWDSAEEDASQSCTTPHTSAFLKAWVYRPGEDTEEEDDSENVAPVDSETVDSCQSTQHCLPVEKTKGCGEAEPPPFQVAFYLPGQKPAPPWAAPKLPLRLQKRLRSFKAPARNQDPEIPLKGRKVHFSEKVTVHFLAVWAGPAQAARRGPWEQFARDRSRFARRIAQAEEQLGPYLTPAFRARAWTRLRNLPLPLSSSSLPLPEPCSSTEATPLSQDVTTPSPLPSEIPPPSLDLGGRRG
# Assay Comment: Peg3 promoter luciferase inhibitors, potency, dose response, cell-based, HeLa, CREF/GAPDH counter-screen panel (AID 624167)
# Stated Conditions: HeLa PEG-Prom luciferase reporter, overnight, CREF/GAPDH counter-screens, mean of runs
Active and inactive are the calls of the source.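 The calls were made as follows: active = mean IC50 for reducing PEG3 promoter reporter signal at or below a set limit, with IC50 above the limit in both counter screens; inactive = the rest, including counter screen hits.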
Possible outcomes: label 1 (active), label 0 (inactive)

INSERT INTO measurements (test_smiles, class_label) VALUES
  ('Cc1ccc(C(=O)Nc2nc3ccccc3[nH]2)cc1', 'label 1'),
  ('O=C(N/N=C/c1sc(N2CCOCC2)nc1-c1ccccc1)c1cccc(S(=O)(=O)N2CCCC2)c1', 'label 1'),
  ('O=C(NC1CCCCC1)Sc1ccc(Cl)cc1', 'label 0'),
  ('CCN1CCN(Cc2c(O)ccc3c2O/C(=C\C=C\c2ccccc2)C3=O)CC1', 'label 0');

====

# Test system: Rat fibroblasts (CREF)
# Assay Comment: Peg3 promoter luciferase inhibitors, potency, dose response, cell-based, HeLa, CREF/GAPDH counter-screen panel (AID 624167)
# Stated Conditions: CREF/GAPDH counter-screens, mean of runs
Active and inactive are the calls of the source.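 Rule for the calls: active = mean IC50 for reducing PEG3 promoter reporter signal at or below a set limit, with IC50 above the limit in both counter screens; inactive = the rest, including counter screen hits.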
Possible outcomes: active, inactive

INSERT INTO assay_data (compound, class_label) VALUES
  ('C/C(=N\NC(=O)c1cc(C2CC2)nc2ccccc12)c1ccc(O)cc1O', 'inactive'),
  ('O=C(COc1ccc2c(c1)CCC2)Nc1ccccn1', 'active'),
  ('O=C(/C=C/c1ccc(Cl)c([N+](=O)[O-])c1)c1ccc(O)cc1', 'active'),
  ('CCN(CCCl)c1cc(CN(C)C)cc(NC(=O)c2ccc(C(=O)Nc3cc(CN(C)C)cc(N(CC)CCCl)c3)cc2)c1', 'active'),
  ('O=C(NC(=O)c1ccccc1)Nc1ccccn1', 'active'),
  ('Cc1csc(NC(=O)c2ccc(N3CCCC3=O)cc2)n1', 'active'),
  ('CCCS(=O)(=O)c1cnc(C2COc3ccccc3O2)nc1N (stereo unspecified)', 'active'),
  ('O=C(Cn1ncc(Cl)c(Cl)c1=O)N1CCc2ccccc21', 'active'),
  ('O=c1cc(-c2ccc(O)cc2)oc2ccc3ccccc3c12', 'active'),
  ('O=C(CNC(=O)C(c1ccccc1)c1ccccc1)N/N=C/c1ccc(O)cc1O', 'inactive'),
  ('Cc1cc(C)c2c(N)c(C(=O)Nc3ncc(C)s3)sc2n1', 'active'),
  ('CN[C@H]1C[C@H]2c3[nH]c4ccc(-c5ccc(OC)cc5)cc4c3CCN2C(=O)[C@H]1[C@H](C)O', 'active'),
  ('CN=c1scc(-c2cccs2)n1/N=C/c1ccccc1O', 'active'),
  ('Cc1ccc(-c2cn3cc(C)ccc3n2)cc1', 'active'),
  ('COC(=O)c1nn(-c2ccc3c(c2)CCN3C(C)=O)cc1O', 'active'),
  ('CC(C)CCCCCCCCCCCCC(=O)NCC(=O)NC1C(O)C(O)C(Nc2ncnc3nc[nH]c23)OC1C(O)CO (stereo unspecified)', 'inactive');

====

# System: Rat fibroblasts (CREF)
# Assay Comment: Peg3 promoter luciferase inhibitors, potency, dose response, cell-based, HeLa, CREF/GAPDH counter-screen panel (AID 624167)
# Stated Conditions: CREF/GAPDH counter-screens, mean of runs
Calls of active or inactive are those of the source.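 How the source made its calls: active means mean IC50 for reducing PEG3 promoter reporter signal at or below a set limit, with IC50 above the limit in both counter screens; inactive means the rest, including counter screen hits.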
Labels: active, inactive

INSERT INTO results (test_smiles, assayed_system, class_label) VALUES
  ('CC1CCN(c2ccc(-c3cccs3)nn2)CC1', 'Rat fibroblasts (CREF)', 'active'),
  ('CCc1ccn2cc(-c3ccc4c(c3)OCO4)nc2c1', 'Rat fibroblasts (CREF)', 'inactive'),
  ('COc1ccc(C(=O)CN2C(=O)c3ccccc3S2(=O)=O)cc1', 'Rat fibroblasts (CREF)', 'active'),
  ('Cc1nc(-c2ccc(NC(=O)c3ccco3)cc2)cs1', 'Rat fibroblasts (CREF)', 'active'),
  ('CC(/C=C/c1ccccc1)=N/NC(=O)c1cc([N+](=O)[O-])cc([N+](=O)[O-])c1', 'Rat fibroblasts (CREF)', 'inactive'),
  ('CCCSc1ccc2nc(-c3ccccc3)cn2c1', 'Rat fibroblasts (CREF)', 'active'),
  ('C(=NN1CCCCCC1)c1ccc2ccccc2n1', 'Rat fibroblasts (CREF)', 'active'),
  ('Cc1nn(-c2nc3ccccc3[nH]2)c(=O)c2ccccc12', 'Rat fibroblasts (CREF)', 'active'),
  ('CCc1ccc(/C=C2\SC(=S)N(CCCC(=O)NC3=NCCS3)C2=O)cc1', 'Rat fibroblasts (CREF)', 'inactive'),
  ('COc1cc(C(=O)N/N=C(\c2ccccc2)c2ccccn2)cc(OC)c1OC', 'Rat fibroblasts (CREF)', 'inactive'),
  ('Cc1c([N+](=O)[O-])cc(N2C(=O)C=CC2=O)cc1[N+](=O)[O-]', 'Rat fibroblasts (CREF)', 'active');
